Just for reference, patent US6281342A is where these values come from.

Reported solubility values for a set of molecules
assay: Water solubility at neutral pH in PBS containing Ca^2+/Mg^2+; format: physicochemical; details: pbs with ca2+/mg2+; Table 3; water-solubility at neutral pH in phosphate buffered saline containing Ca^2+/Mg^2+
Answer with a number only, understood to be in µg/mL.

COc1cc(O)c2c(c1)C(=O)c1c(cc3c(c1O)-c1c(cc(C)c(C(=O)N[C@H](CO)C(=O)O)c1O)[C@H](O[C@@H]1O[C@H](C)[C@H](N)[C@H](O[C@@H]4OC[C@@H](O)[C@H](O)[C@H]4O)[C@H]1O)[C@H]3O)C2=O [Pradimicin FA-2, reference compound]; 20

q: Given CN[C@@H]1[C@H](O[C@@H]2OC[C@@H](O)[C@H](O)[C@H]2O)[C@@H](O)[C@H](O[C@H]2c3cc(C)c(C(=O)N[C@H](CO)C(=O)O)c(O)c3-c3c(cc4c(c3O)C(=O)c3cc(OC)cc(O)c3C4=O)[C@@H]2O)O[C@@H]1C [Pradimicin FA-1, reference compound] , state its recorded solubility.
a: 260
